Recorded values, source ChEMBL document CHEMBL3621161.

Target: Neuronal acetylcholine receptor; alpha4/beta4 (Rattus norvegicus, UniProt P09483+P12392)
Sequence (P09483 whole entry): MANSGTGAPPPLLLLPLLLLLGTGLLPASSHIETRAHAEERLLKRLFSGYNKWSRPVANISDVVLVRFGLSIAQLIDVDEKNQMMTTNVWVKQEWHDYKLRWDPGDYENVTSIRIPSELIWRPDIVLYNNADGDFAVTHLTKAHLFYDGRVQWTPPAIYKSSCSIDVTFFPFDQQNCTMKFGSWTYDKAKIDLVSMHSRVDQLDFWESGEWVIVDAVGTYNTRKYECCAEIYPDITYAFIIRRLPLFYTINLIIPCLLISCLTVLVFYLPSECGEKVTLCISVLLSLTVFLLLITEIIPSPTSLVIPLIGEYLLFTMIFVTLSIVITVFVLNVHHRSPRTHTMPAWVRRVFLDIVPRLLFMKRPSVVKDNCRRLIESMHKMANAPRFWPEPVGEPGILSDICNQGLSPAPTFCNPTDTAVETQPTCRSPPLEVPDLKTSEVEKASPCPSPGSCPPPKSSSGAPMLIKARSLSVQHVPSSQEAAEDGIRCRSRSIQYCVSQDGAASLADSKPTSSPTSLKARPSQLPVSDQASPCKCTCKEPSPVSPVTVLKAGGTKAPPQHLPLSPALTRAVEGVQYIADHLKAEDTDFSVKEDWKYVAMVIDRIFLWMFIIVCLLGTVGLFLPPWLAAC
Sequence (P12392 whole entry): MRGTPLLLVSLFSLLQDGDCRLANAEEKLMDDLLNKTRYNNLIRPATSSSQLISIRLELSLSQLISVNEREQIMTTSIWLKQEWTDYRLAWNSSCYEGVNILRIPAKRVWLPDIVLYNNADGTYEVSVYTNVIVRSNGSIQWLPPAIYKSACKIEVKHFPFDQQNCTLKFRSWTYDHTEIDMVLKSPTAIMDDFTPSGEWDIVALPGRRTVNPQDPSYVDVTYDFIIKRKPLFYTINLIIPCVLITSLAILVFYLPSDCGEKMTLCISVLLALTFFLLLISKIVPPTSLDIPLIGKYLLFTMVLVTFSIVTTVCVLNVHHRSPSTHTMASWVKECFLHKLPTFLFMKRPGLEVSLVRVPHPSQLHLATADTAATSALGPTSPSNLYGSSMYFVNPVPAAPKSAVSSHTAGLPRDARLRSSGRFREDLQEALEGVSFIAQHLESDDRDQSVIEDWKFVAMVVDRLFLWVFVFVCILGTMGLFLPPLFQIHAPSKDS
Assay: Displacement of [3H]epibatidine from rat neuronal acetylcholine receptor subunit alpha4beta4 expressed in HEK293 cell membranes incubated for 4 hrs by scintillation counting method
Settings: read-out: Ki
reported property: Ki (µM)
Write the value in µM as a bare number.

// query Can you share its Ki? I mean this molecule: CCNC(=O)N1CCN(C)CC1
// result 100

// query Can you handle CN(C)C(=O)OC[C@H]1C[C@H]1N (racemic) next?
// result 100

// query Can you handle CNC(=S)N1CCC(N(C)C)C1 (racemic) next?
// result 100
